Assay: Volume of distribution in rat
Assay type: ADME, organism-based
Details: in vivo
Quantity: Vd
In your response, the unit should come after the numeric value.

Item OC(c1cccnc1)(c1cccnc1)C(c1ccccc1)N1CCCC1 (stereo unspecified) : provide Vd
3.4 L/kg

###

Experiment: in vivo
Settings: rat, brain/plasma, iv, 0.435 mg/kg
Quantity: Kp at 1 h
Give the figure only, with no unit attached.

Hello, please tell me recorded Kp at 1 h for this one: OC(c1cccnc1)(c1cccnc1)C(c1ccccc1)N1CCCC1 (stereo unspecified)
0.58

###

Experiment: Plasma concentration in rat at 0.01 mg/kg/min, iv after 20 mins
Assay type: ADME, organism-based
Parameters: route intravenous
Quantity: concentration at 20 min (µM)
Field format: number, assumed µM, no unit text.

Indicate the recorded concentration at 20 min value for this compound: OC(c1cccnc1)(c1cccnc1)C(c1ccccc1)N1CCCC1 (stereo unspecified)
0.185

###

Assay: Aqueous solubility at pH 7.2
Format: physicochemical
Quantity: solubility (µg/mL)
Write the answer as a number in µg/mL, unit excluded.

Provide solubility value for the following compound: OC(c1cccnc1)(c1cccnc1)C(c1ccccc1)N1CCOCC1 (stereo unspecified)
43

###

Test: Aqueous solubility at pH 5.2
Type: physicochemical
Quantity: solubility (µg/mL)
Answer in µg/mL, number only, no unit symbol.

Input OC(c1cccnc1)(c1cccnc1)C(c1ccccc1)N1CCCC1 (stereo unspecified) , output reported solubility.
1400

###

Assay: Plasma concentration in rat at 0.06 mg/kg/min, iv after 20 mins
Format: ADME, organism-based
Parameters: route intravenous
Quantity: concentration at 20 min (nM)
Your answer should be a plain number; it is taken to be in nM.

Indicate the recorded concentration at 20 min value for this molecule: OC(c1cccnc1)(c1cccnc1)C(c1ccccc1)N1CCCC1 (stereo unspecified)
1780

###

Assay: Clearance in rat
Assay type: ADME, organism-based
Conditions: in vivo
Quantity: clearance (L/h/kg)
API: value field is a number in L/h/kg; no unit string.

For OC(c1cccnc1)(c1cccnc1)C(c1ccccc1)N1CCCC1 (stereo unspecified) , write its clearance.
3.54

###

Assay: Drug level in rat brain at 435 ug/kg/min, iv after 1 hr
Format: ADME, organism-based
Conditions: 0.435 mg/kg, read-out: Drug uptake
Quantity: concentration at 1 h (µM)
Kindly provide the numeric value in µM only, without the unit symbol.

Give a short answer stating reported concentration at 1 h for OC(c1cccnc1)(c1cccnc1)C(c1ccccc1)N1CCCC1 (stereo unspecified) .
13.7

###

Test: Plasma concentration in rat at 0.6 mg/kg/min, iv after 20 mins
Assay type: ADME, organism-based
Parameters: route intravenous
Quantity: concentration at 20 min

For OC(c1cccnc1)(c1cccnc1)C(c1ccccc1)N1CCCC1 (stereo unspecified) , write its concentration at 20 min.
9.62 µM
